# kon per record follows
Molecular target: T1, recombinant human ASM protein (human, UniProt P17405 47-630)
T1 construct: Recombinant human ASM in solution; also called acid sphingomyelinase (ASM) protein
T1 sequence: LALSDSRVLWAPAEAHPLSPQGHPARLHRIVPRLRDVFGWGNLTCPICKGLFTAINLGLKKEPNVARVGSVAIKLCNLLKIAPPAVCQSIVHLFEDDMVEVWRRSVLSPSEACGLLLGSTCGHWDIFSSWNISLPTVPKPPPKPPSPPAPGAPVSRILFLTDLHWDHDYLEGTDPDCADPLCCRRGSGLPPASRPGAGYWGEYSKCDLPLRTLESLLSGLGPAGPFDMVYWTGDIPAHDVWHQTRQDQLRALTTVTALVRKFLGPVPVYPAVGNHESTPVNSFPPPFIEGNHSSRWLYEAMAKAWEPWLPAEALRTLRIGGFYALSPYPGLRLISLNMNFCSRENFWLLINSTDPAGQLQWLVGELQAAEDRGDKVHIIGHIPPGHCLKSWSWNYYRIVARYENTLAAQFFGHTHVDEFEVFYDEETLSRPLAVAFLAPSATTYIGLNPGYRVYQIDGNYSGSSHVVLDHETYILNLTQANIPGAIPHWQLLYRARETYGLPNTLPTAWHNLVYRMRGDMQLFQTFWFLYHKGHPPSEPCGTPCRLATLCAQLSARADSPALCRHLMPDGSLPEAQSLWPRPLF
Experiment: BLI (Octet), antibody on AHC sensor
Give just the numeric value; M⁻¹ s⁻¹ need not be written.

In the examples that follow, each entry is paired with its recorded kon.
binder	readout_name	value_observed
#9104 (antibody, V domains shown, Parental antibody; also called antibody #9104) VH: EVQLLESGGGLVQPGGSLRLSCAASGFTFSNYYMSWVRQAPGKGLEWVSGIYYGSGNIYYADSVKGRFTISRDNSKNTLYLQMNSLRAEDTAVYYCARDTPGFDYWGQGTLVTVSS VL: QSVLTQPPSASGTPGQRVTISCTGSSSNIGNNAVNWYQQLPGTAPKLLIYYDSHRPSGVPDRFSGSKSGTSASLAISGLRSEDEADYYCGAWDYSLSAYVFGGGTKLTVLG	kon	389000
#9104v-L33 (antibody, human IgG4 S228P, lambda, V domains shown, Full-length IgG, lambda) VH: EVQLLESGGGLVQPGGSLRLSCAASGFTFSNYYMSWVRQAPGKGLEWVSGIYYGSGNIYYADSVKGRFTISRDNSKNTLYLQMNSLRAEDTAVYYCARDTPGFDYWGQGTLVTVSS VL: QSVLTQPPSASGTPGQRVTISCTGSSSNIGNNAVNWYQQLPGTAPKLLIYYDSYPPYGVPDRFSGSKSGTSASLAISGLRSEDEADYYCGAWDYSLSAYVFGGGTKLTVLG	kon	227000

Respond only with kon recorded for #9104v-L28 (antibody, human IgG4 S228P, lambda, V domains shown, Full-length IgG, lambda) VH: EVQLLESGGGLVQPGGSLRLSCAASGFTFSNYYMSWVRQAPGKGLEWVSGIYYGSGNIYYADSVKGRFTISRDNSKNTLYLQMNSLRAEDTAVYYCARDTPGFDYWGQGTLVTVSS VL: QSVLTQPPSASGTPGQRVTISCTGSSSNIGNNAVNWYQQLPGTAPKLLIYYDSFRRSGVPDRFSGSKSGTSASLAISGLRSEDEADYYCGAWDYSLSAYVFGGGTKLTVLG
241000

Respond only with kon recorded for #9104v-L23 (antibody, human IgG4 S228P, lambda, V domains shown, Full-length IgG, lambda) VH: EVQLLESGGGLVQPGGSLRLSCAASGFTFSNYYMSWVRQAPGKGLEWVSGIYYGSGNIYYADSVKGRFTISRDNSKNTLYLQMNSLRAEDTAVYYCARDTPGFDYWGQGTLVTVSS VL: QSVLTQPPSASGTPGQRVTISCTGSSSNIGNNAVNWYQQLPGTAPKLLIYYDQFRPSGVPDRFSGSKSGTSASLAISGLRSEDEADYYCGAWDYSLSAYVFGGGTKLTVLG
226000

Respond only with kon recorded for #9104v-L52 (antibody, human IgG4 S228P, lambda, V domains shown, Full-length IgG, lambda) VH: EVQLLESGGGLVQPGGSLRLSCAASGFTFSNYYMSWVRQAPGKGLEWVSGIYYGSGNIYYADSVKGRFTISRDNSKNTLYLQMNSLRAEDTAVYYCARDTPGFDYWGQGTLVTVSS VL: QSVLTQPPSASGTPGQRVTISCTGSSSNIGNNAVNWYQQLPGTAPKLLIYYDVHRPRGVPDRFSGSKSGTSASLAISGLRSEDEADYYCGAWDYSLSAYVFGGGTKLTVLG
269000
